assayReadout: melting point

compound | melting point
Cc1ccc(NC(=O)c2ccc(N(C)C)cc2)cc1Nc1nc(-c2cccnc2)cs1 [Compound 047] | 147 to 150 °C
Cc1ccc(NC(=O)Nc2ccc(C)c(Nc3nc(-c4cccnc4)cs3)c2)cc1 [Compound 026] | 238 to 240 °C
Cc1ccc(NC(=O)c2ccc(-c3ccncc3)cc2)cc1Nc1nc(-c2cccnc2)cs1 [Compound 046] | 254 to 256 °C

[in] Specify measured melting point for Cc1ccc(NC(=O)c2cccc(F)c2)cc1Nc1nc(-c2cccnc2)cs1 [Compound 045] .
[out] 184 to 186 °C

[in] Supply melting point value. Item: Cc1ccc(NC(=O)c2ccc(C(C)(C)C)cc2)cc1Nc1nc(-c2cccnc2)cs1 [Compound 049]
[out] 145 to 150 °C

[in] Give melting point for the following compound: Cc1ccc(NC(=O)Nc2cccc(F)c2)cc1Nc1nc(-c2cccnc2)cs1 [Compound 025]
[out] 210 to 215 °C

----------
assayReadout: melting point

Completed entries (count: 3):
compound | assayReadout | measuredValue
Cc1ccc(NC(=O)c2cccc(OCCN3CCOCC3)c2)cc1Nc1nc(-c2cccnc2)cs1 [Compound 052] | melting point | 75 to 80 °C
Cc1ccc(NC(=O)c2cccc(N3CCOCC3)c2)cc1Nc1nc(-c2cccnc2)cs1 [Compound 090] | melting point | 247 to 248 °C
Cc1ccc(NC(=O)c2cccc(N(C)C)c2)cc1Nc1nc(-c2cccnc2)cs1 [Compound 088] | melting point | 197 to 198 °C

In the following, a different compound is considered.
[in] Identify measured melting point associated with Cc1ccc(NC(=O)Nc2ccccc2F)cc1Nc1nc(-c2cccnc2)cs1 [Compound 023]
[out] 203 to 206 °C

----------
assayReadout: melting point

Take a look at these entries with their results.
smilesEntry | assayReadout | measuredValue
Cc1ccc(NC(=O)CCCN2CCOCC2)cc1Nc1nc(-c2cccnc2)cs1 | melting point | 116 to 120 °C
Cc1ccc(NC(=O)c2ccc(NS(=O)(=O)c3cccs3)cc2)cc1Nc1nc(-c2cccnc2)cs1 | melting point | 230 to 233 °C

[in] Given `Cc1ccc(F)c(C(=O)Nc2ccc(C)c(Nc3nc(-c4cccnc4)cs3)c2)c1` , respond with its melting point.
[out] 103 to 106 °C
